Target: human intestinal bile acid transporter (hIBAT) (Homo sapiens)
Construct: expressed in transfected cells; host or cells: COS-7 cells, transient transfection with pCMV5-hIBAT (LipofectAMINE 2000)
Sequence (Q12908 whole entry): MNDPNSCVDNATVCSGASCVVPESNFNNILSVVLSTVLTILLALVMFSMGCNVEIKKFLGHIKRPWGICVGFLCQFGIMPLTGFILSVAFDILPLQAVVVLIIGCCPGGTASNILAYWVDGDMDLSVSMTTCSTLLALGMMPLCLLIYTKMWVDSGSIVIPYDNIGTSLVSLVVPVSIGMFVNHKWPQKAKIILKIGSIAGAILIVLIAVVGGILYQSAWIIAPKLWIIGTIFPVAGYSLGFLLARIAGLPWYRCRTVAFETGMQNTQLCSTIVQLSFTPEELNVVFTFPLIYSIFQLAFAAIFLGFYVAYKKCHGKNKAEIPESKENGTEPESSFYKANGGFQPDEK
Assay: Competitive inhibition of 3H-taurocholate uptake in COS-hIBAT cells
Format: cell-based
Settings: COS-hIBAT cells, 0.25 μM 3H-taurocholate; valacyclovir 10 to 600 μM, atenolol 10 to 200 μM, glycine and taurine 50 to 200 μM, bile acids 1 to 100 μM
quantityName: inhibition of 3H-taurocholate uptake / interaction with hIBAT (in words)

INSERT INTO measurements (samplesmiles, testedtarget, result) VALUES
  ('NCC(=O)O', 'human intestinal bile acid transporter (hIBAT) (Homo sapiens)', 'not reduced'),
  ('NCCS(=O)(=O)O', 'human intestinal bile acid transporter (hIBAT) (Homo sapiens)', 'not reduced');
